Value source: patent US20030148958A1

# tested system: T1, CRF2R; also: reference of the scale not given here
# T1 sequence (Q13324 whole entry, species assumed, looked up): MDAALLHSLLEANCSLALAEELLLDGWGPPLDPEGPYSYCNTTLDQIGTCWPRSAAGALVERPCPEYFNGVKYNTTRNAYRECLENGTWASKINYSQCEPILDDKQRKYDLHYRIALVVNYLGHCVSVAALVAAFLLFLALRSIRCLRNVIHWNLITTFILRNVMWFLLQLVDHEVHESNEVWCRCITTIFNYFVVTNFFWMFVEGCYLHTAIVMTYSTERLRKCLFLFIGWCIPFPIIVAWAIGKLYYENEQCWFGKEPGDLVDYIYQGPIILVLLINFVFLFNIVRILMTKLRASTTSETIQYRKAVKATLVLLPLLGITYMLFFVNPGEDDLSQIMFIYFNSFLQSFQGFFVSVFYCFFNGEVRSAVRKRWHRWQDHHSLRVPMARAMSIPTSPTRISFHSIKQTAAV
# test method notes: cell-based or functional assay
Ends that are not written are not given here.
recorded endpoint: CRF2R Emax %

Example cases with answers are listed next.
>  <binder>
ZGPPISIDLPLQLLRKMIEIEKQEKEKQQATTNARLLDTV (C-terminal amide) [SEQ ID NO 246]

>  <CRF2R Emax %>
100%

$$$$
>  <binder>
DNPSLSIDLPLLLLRTLLELEKTQSQRERAEQNAQIFAHV-NH2 [SEQ ID NO 324]

>  <CRF2R Emax %>
100%

$$$$

--- query ---
Prompt line: Find the recorded CRF2R Emax % belonging to ZGPPISIDLPFHLLRKMIEIEKQEKEKQQAANNALLLDTI (C-terminal amide) [SEQ ID NO 228] and report it.
Response line: 100%
